competition rate: recorded values
# Experimental Target: T1, human MSLN-FL-his protein (human, UniProt Q13421 296-580)
# T1 construct: made in HEK293E cells, purified on nickel column; also called hMSLN-FL-his; human MSLN full-length protein; not shown: His tag
# T1 sequence (Q13421 other isoform, or with tags, fused parts or gaps): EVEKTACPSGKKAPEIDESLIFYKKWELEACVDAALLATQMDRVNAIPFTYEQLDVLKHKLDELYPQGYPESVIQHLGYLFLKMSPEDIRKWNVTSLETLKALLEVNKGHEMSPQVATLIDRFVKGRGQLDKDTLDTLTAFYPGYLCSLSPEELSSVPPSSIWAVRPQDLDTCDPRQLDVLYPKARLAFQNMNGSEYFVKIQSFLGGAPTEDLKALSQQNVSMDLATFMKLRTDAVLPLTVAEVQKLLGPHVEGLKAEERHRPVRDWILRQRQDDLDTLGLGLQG
# Method Description: competitive ELISA; row F8-4.5; further: test concentration or dose not given here
Quantity Kind: competition rate

Binder	Recorded Result
S009-F8-19.21 (antibody, human IgG1, kappa, V domains shown, human-murine chimeric antibody, human IgG1/kappa constant regions) VH: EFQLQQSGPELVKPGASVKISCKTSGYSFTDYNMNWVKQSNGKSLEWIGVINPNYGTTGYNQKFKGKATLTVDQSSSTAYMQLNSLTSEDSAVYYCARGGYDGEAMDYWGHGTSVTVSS VL: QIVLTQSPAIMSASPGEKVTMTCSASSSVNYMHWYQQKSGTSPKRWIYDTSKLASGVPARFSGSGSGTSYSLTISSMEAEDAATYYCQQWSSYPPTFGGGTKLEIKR	89.7%
S009-F8-31.22 (antibody, human IgG1, kappa, V domains shown, human-murine chimeric antibody, human IgG1/kappa constant regions) VH: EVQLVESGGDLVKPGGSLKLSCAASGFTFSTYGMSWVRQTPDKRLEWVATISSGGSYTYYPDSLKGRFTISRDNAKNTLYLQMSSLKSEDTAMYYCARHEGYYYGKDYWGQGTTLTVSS VL: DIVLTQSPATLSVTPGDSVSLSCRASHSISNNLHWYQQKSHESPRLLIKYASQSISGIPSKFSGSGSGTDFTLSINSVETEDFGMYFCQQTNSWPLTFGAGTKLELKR	-2.53%
S009-F8-27.1 (antibody, human IgG1, kappa, V domains shown, human-murine chimeric antibody, human IgG1/kappa constant regions) VH: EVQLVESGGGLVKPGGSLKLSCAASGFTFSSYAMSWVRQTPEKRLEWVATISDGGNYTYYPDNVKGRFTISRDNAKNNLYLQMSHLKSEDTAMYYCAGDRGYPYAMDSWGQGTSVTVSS VL: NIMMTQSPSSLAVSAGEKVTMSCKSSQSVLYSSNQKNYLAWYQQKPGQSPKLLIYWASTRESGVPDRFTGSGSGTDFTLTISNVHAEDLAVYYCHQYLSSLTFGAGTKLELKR	92%
